- test_target: furin, P09958;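 further: purified furin at 1:10 enzyme:substrate in 50 mM HEPES pH 7.5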
- Sequence (P09958 whole entry): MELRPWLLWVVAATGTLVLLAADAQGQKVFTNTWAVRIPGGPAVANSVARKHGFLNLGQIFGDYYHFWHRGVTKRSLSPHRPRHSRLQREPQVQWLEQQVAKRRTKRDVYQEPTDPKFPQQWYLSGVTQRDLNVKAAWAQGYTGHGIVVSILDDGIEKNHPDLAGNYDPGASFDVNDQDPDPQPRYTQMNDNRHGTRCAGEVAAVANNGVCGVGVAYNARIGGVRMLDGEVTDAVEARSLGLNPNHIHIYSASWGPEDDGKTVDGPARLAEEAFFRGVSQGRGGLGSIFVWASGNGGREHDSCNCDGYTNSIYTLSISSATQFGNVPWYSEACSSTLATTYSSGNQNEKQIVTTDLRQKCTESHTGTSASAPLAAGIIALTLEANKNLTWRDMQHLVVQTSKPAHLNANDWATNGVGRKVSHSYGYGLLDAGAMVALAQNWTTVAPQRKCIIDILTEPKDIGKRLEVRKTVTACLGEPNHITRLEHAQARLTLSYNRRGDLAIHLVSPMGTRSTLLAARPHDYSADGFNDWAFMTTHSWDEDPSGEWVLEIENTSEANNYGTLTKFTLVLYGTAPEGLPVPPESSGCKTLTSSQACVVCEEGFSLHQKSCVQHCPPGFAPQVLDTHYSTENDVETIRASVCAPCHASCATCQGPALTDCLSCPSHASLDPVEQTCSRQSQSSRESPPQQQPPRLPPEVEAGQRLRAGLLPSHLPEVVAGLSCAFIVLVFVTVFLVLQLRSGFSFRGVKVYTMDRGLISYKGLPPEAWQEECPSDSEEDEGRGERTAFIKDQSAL
- assay_name: furin cleavage Z-score vs untreated control; higher = more cleavage, active = 3.5 or more, inactive = 1 or less, 8 variable residues between constant flanks
- experimental_context: 30 min
This is one part of the list. No count for the full screen is at hand.
So basically: furin cleavage Z-score at -0.7 or higher? That is Fulfilled. Lower than -0.7? That is Not fulfilled.

- sequence_data: "CARAFTEAMTAGNASASA [HC1539]"
  label: "Fulfilled"
- sequence_data: "CARFERAIGPAGNASASA [FS-2662]"
  label: "Fulfilled"
- sequence_data: "CARSWRLACEAGNASASA [FS-2610]"
  label: "Not fulfilled"
- sequence_data: "CAMEEQSQHLAGNASASA [HC19]"
  label: "Fulfilled"
- sequence_data: "CAPFDLLDFNAGNASASA [CS3]"
  label: "Not fulfilled"
- sequence_data: "CARQNRSVRLAGNASASA [FS-1916]"
  label: "Fulfilled"
- sequence_data: "CASLMAFTAAAGNASASA [HC1055]"
  label: "Not fulfilled"
- sequence_data: "CATHFFSVLIAGNASASA [HC1584]"
  label: "Not fulfilled"
- sequence_data: "CARHKRGRGDAGNASASA [FS-1714]"
  label: "Fulfilled"
- sequence_data: "CARAQRSPQQAGNASASA [FS-2129]"
  label: "Fulfilled"
- sequence_data: "CARHLREVGDAGNASASA [FS-1715]"
  label: "Fulfilled"
- sequence_data: "CARFKRLADMAGNASASA [FS-2489]"
  label: "Fulfilled"
- sequence_data: "CARQNREKRFAGNASASA [FS-493]"
  label: "Fulfilled"
- sequence_data: "CATQTVDFSLAGNASASA [HC890]"
  label: "Not fulfilled"
